Reference source: patent US20230250190A1

# TEST TARGET: T1, T9 (Tn-MUC1) (PAPGSTAPPAHGVT(α-GalNAc)S(α-GalNAc)APDTRPAPG-OH)
# T1 peptide: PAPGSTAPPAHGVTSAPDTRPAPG
# TEST NAME: glycopeptide array
Measured EC50, listed per entry.
Return type: number; implicit unit µg/mL.

Query: Reported EC50, binder 150 (antibody, V domains shown) VH: QVQLVQSGAEVKTPGASVKVSCKASGYTFTNYYIQWVRQAPGQALEWMGVINPYDGSTHYAQKFQGRVTLTRDTSTTTVYMDLSSLRSEDAAVYYCARDYMLGYVVFDYWGQGTLVTVSS : ____
Reply: 0.098

Query: Next: 126 (antibody, V domains shown) VH: QVQLVQSGAEVKKPGASVKVSCKASGYTFNRYYLHWVRQAPGQGLEWMGVINPYDGSTNYAQKFRGRVTMTRDTSTNTVYMELSSLRSEDTAVYFCARDAMEGDSYFDNWGQGTTVTVSS
Reply: 0.153

Query: Then what about the binder 33 (antibody, V domains shown) VH: QVQLVQSGAEVKKPGASVRVSCKASGYPFINYYIQWVRQAPGQGLEWMGVINPFDGSTNYAQKFQDRVTVTRDTSTSTVFMDLSSLRSEDTAVYYCARDNMIGYVLLDYWGQGTLVTVSS ?
Reply: 0.071

Query: Repeat with 194 (antibody, V domains shown) VH: QVQLVQSGAEVKKPGTSVKVSCTASGYTFTNYYIQWVRQAPGQGLEWLGVINPYDGSTDYAQKFQGRVTLTRDTSTTTVYMELSSLRSEDTAVYYCARDYMLGYVVFDFWGQGTLVTVSS
Reply: 0.082
